Test: qHTS for Inhibitors of the Aldehyde Dehydrogenase Family (ALDH1A2, ALDH1A3, ALDH2, ALDH3A1) (AID 2061307); further: nearly all actives have a fitted effect of over 50% in size
Details: ALDH inhibition qHTS; series mostly up to 50.3 µM
Inconclusive results are not listed. Calls of active or inactive are those of the source. The call rests on the fitted dose curve; in most records, active means well fitted inhibition curve with a large enough effect; inconclusive means small, poorly fitted or top-dose-only effect; inactive means no such curve, though single readings can be large or run the other way.
Can you answer with just one of these options? active, inactive

                         smiles_entry  qualitative_label
0           Cc1ccnc(NC(=S)N2CCNCC2)c1           inactive
1  Oc1[nH]c2ccccc2c1N=NC(=S)Nc1cccnc1           inactive

Below: the item to evaluate.
**Q:** Tell me the recorded outcome of this test for `Oc1ccc(CNc2cc(C(F)(F)F)ccn2)c2cccnc12` .
**A:** active

All figures here come from PubChem BioAssay (NCATS).
